System tested: T1, TNFR1 (Homo sapiens, UniProt P19438)
T1 chain: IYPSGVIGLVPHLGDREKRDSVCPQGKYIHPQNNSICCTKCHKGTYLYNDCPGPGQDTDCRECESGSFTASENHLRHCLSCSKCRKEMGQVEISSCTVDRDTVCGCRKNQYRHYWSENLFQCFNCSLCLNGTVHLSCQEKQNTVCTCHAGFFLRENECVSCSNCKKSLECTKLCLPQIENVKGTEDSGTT
Test description: yeast display SC50
We use 500 pM as the dividing line for apparent Kd (screen): on or above the line is true (1), below is false (0).

The examples below pair each entry with its known result.
| Binder | Group label |
| --- | --- |
| A88Y (designed binder) MTLQELLREEALRRAEAEAFRYALELLAEKFPEQKEYLLDLAEEIESQIRSLSGVDVEDVRKFLDKEWAWVKELLAEHPAELAEVEAYRAARLAELRAEVEAKVAA | true (1) |
| L26H (designed binder) MTLQELLREEALRRAEAEAFRYALEHLAEKFPEQKEYLLDLAEEIESQIRSLSGVDVEDVRKFLDKEWAWVKELLAEHPAELAEVEAARAARLAELRAEVEAKVAA | true (1) |
| A11H (designed binder) MTLQELLREEHLRRAEAEAFRYALELLAEKFPEQKEYLLDLAEEIESQIRSLSGVDVEDVRKFLDKEWAWVKELLAEHPAELAEVEAARAARLAELRAEVEAKVAA | true (1) |
| A42D (designed binder) MTLQELLREEALRRAEAEAFRYALELLAEKFPEQKEYLLDLDEEIESQIRSLSGVDVEDVRKFLDKEWAWVKELLAEHPAELAEVEAARAARLAELRAEVEAKVAA | true (1) |
| Q48S (designed binder) MTLQELLREEALRRAEAEAFRYALELLAEKFPEQKEYLLDLAEEIESSIRSLSGVDVEDVRKFLDKEWAWVKELLAEHPAELAEVEAARAARLAELRAEVEAKVAA | true (1) |
| E43C (designed binder) MTLQELLREEALRRAEAEAFRYALELLAEKFPEQKEYLLDLACEIESQIRSLSGVDVEDVRKFLDKEWAWVKELLAEHPAELAEVEAARAARLAELRAEVEAKVAA | false (0) |

From here, focus on the item given below.
Is reported apparent Kd (screen) greater than or equal to 500 pM here: R97T (designed binder) MTLQELLREEALRRAEAEAFRYALELLAEKFPEQKEYLLDLAEEIESQIRSLSGVDVEDVRKFLDKEWAWVKELLAEHPAELAEVEAARAARLAELTAEVEAKVAA
true (1)
